Value source: patent US10131670B2

Reported values of pEC50 for individual entries
Assayed target: CFTR (Homo sapiens, UniProt P13569)
Assay explanation: Ussing Chamber Electrophysiology Assay of CFTR Potentiation in CF Bronchial Epithelial Cells
Type: cell-based
Condition details: primary CF hBE cells, short-circuit current, scaled to DMSO (0%) and positive control potentiator (100%)
Scale explanation: pEC50 corresponds to minus log10 of a concentration expressed in moles per litre.

Bench note, CFTR (Homo sapiens, UniProt P13569): entry CCC(c1cn(-c2ccccc2F)nn1)c1cc(-c2cncnc2OC)c2c(N)ncnn12 (single isomer, unassigned) [Example 65] , its pEC50 = 7.98

Bench note, CFTR (Homo sapiens, UniProt P13569): entry CC(c1cn(-c2cc(F)ccc2F)nn1)c1cc(-c2cnc(C(F)(F)F)nc2)c2c(N)ncnn12 (single isomer, unassigned) , its pEC50 = 7.70

Bench note, CFTR (Homo sapiens, UniProt P13569): entry CCC(c1cn(-c2ccccc2F)nn1)n1nc(-c2cnc(C(F)(F)F)nc2)c2c(N)ncnc21 (single isomer, unassigned) [Example 89] , its pEC50 = 6.72

Bench note, CFTR (Homo sapiens, UniProt P13569): entry CC(c1cn(-c2ccc(F)cc2F)nn1)c1c(C#N)c(-c2cnc(C(F)(F)F)nc2)c2c(N)ncnn12 (single isomer, unassigned) [Example 3] , its pEC50 = 7.84

Bench note, CFTR (Homo sapiens, UniProt P13569): entry CC(c1cn(-c2ccc(F)cc2F)nn1)c1cc(-c2cnc(C(F)(F)F)nc2)c2c(N)ncnn12 (single isomer, unassigned) [Example 55] , its pEC50 = 6.65
